test system: T-47D breast; experiment: NCI tumour cell line growth inhibition, 48 h
endpointName: TGI

Some solved cases for reference:
>>> df
                                   compound  resultvalue
0  CC(C)COP(=O)(OCC(C)C)C(NS(=O)(=O)c1ccccc1)(C(F)(F)F)C(F)(F)F      9.34 µM
1  C[C@H](Cn1ncnn1)Nc1ncc2cc(Oc3ccc(F)cc3F)c(=O)n(C)c2n1      > 25 µM
2  CN(C)CCCN1C(=S)N(CCCN(C)C)c2c3cc(O)ccc3nc3c([N+](=O)[O-])ccc1c23      9.48 µM

// fetch TGI given entry `CCCn1c(CN(Cc2nc3ccccc3n2CCC)Cc2nc3ccccc3n2CCC)nc2ccccc21`
28.6 µM

Quickly give me recorded TGI for `COc1ccccc1-c1cc(=O)c2ccc(C)nc2[nH]1`
> 100 µM

Read off the recorded TGI for `C=CCSc1nc2ccccc2c(=O)n1Cc1ccco1`
> 100 µM

Please report the measured TGI for COc1ccc(C2(CC(C)O)SCCCS2)cc1 (stereo not given)
> 100 µM

Given the compound `C=CC[C@]12C[C@@H](C(=O)OC)N(C(=O)OC)[C@H]1N(S(=O)(=O)c1ccccc1)c1ccccc12` , write its reported TGI.
> 100 µM

Provide TGI value for the following compound: `c1ccc2nc3c(cc4ccccn43)nc2c1`
> 100 µM

Answer with the recorded TGI for the compound listed here: `Cn1c(/C(C#N)=C/c2ccc3ccccc3c2)cc2ccccc21`
> 100 µM
